- MEASURED_TARGET: Full-length (FL)-PRMT5-MEP50 enzyme complex (Homo sapiens)
- Construct: Full-length (FL)-PRMT5-MEP50 enzyme complex (recombinant proteins from baculovirus-transfected Sf21 cells: FL-PRMT5; MW=73837 kDa and FL-MEP50; MW=38614); made in house; host or cells: baculovirus-transfected Sf21 cells
- TEST: PRMT5-MEP50 Enzyme Methylation Assay (Version A)
- Assay type: biochemical
- TEST_SETTINGS: second value of 7 parameter biphasic fit; read-out: Enzyme Methylation Assay Version A (EC50 2)
pEC50: −log10 of the molar value.
Recorded pEC50 by entry
QUANTITY_KIND: pEC50

> print(dat)
                                    compound  quantity.kind  endpoint.result
 1  Cc1cc(Br)cn2cc(C(=O)N3CC[C@]4(Cc5ccccc5CN4)[C@H](O)C3)nc12          pEC50             7.38
 2  CCC1Oc2ccc(C(=O)N3CC[C@]4(Cc5ccccc5CN4)[C@H](O)C3)cc2NC1=O (single isomer, unassigned) [Example 104]          pEC50             5.85
 3  Cc1ccn2cc(C(=O)N3CC[C@]4(Cc5ccccc5CN4)[C@H](O)C3)nc2n1          pEC50             4.45
 4  Cc1cnc2nc(C(=O)N3CC[C@]4(Cc5ccccc5CN4)[C@H](O)C3)cn2c1C          pEC50             4.46
 5  Cc1ccc(C(=O)N2CC[C@]3(Cc4ccccc4CN3)[C@H](O)C2)cn1          pEC50             5.45
 6  O=C(c1cn2c(n1)C(C1CCOC1)CC(C(F)(F)F)C2)N1CC[C@]2(Cc3ccccc3CN2)[C@H](O)C1 (single isomer, unassigned) [Example 162]          pEC50             4.03
 7  Cc1ccc(C(=O)N2CC[C@]3(Cc4ccccc4CN3)[C@H](O)C2)c(C)n1          pEC50             5.59
 8  O=C(c1ccc2nccn2n1)N1CC[C@]2(Cc3ccccc3CN2)[C@H](O)C1          pEC50             4.13
 9  O=C(c1cn2cc(C(F)(F)F)cc(C3CCOC3)c2n1)N1CC[C@]2(Cc3ccccc3CN2)[C@H](O)C1 (some centres unmarked)          pEC50             6.57
10  Cc1cc(I)c2nc(C(=O)N3CC[C@]4(Cc5ccccc5CN4)[C@H](O)C3)cn2c1          pEC50             6.54
11  Cc1c(Br)cnc2nc(C(=O)N3CC[C@]4(Cc5ccccc5CN4)[C@H](O)C3)cn12          pEC50             5.19
12  Cc1nc2nc(C(=O)N3CC[C@]4(Cc5ccccc5CN4)[C@H](O)C3)cn2cc1C1CC1          pEC50             6.38
13  CN1CCC(Oc2nc(Br)cn3cc(C(=O)N4CC[C@]5(Cc6ccccc6CN5)[C@H](O)C4)nc23)C1=O (single isomer, unassigned) [Example 95]          pEC50             6.33
14  COCc1cc(Cl)cn2cc(C(=O)N3CC[C@]4(Cc5ccccc5CN4)[C@H](O)C3)nc12          pEC50             6.57
15  CN1CCC(Oc2nc(Br)cn3cc(C(=O)N4CC[C@]5(Cc6ccccc6CN5)[C@H](O)C4)nc23)C1=O (single isomer, unassigned) [Example 94]          pEC50             6.50
16  Cc1nc(Br)cn2cc(C(=O)N3CC[C@]4(Cc5ccccc5CN4)[C@H](O)C3)nc12          pEC50             5.86
17  Cc1cnc2nc(C(=O)N3CC[C@]4(Cc5ccccc5CN4)[C@H](O)C3)cn2c1          pEC50             6.45
18  O=C(c1cn(-c2ccc(F)cc2)cn1)N1CC[C@]2(Cc3ccccc3CN2)[C@H](O)C1          pEC50             4.67
19  O=C(c1cn2c(n1)C(C1CCOC1)CC(C(F)(F)F)C2)N1CC[C@]2(Cc3ccccc3CN2)[C@H](O)C1 (single isomer, unassigned) [Example 161]          pEC50             5.04
20  CO[C@H](C)c1cc(-c2cncs2)cn2cc(C(=O)N3CC[C@]4(Cc5ccccc5CN4)[C@H](O)C3)nc12          pEC50             6.68
21  O=C(c1cnc2ncc(Br)cn12)N1CC[C@]2(Cc3ccccc3CN2)[C@H](O)C1          pEC50             5.69
22  CC(C)(O)c1cc(Br)cn2cc(C(=O)N3CCC4(Cc5ccccc5CN4)C(O)C3)nc12 (centres unmarked)          pEC50             5.53
23  O=C(c1cn2cc(Br)ccc2n1)N1CCC2(Cc3ccccc3CN2)C(O)C1 (centres unmarked)          pEC50             5.80
24  O=C(c1cn2cc(O)ccc2n1)N1CC[C@]2(Cc3ccccc3CN2)[C@H](O)C1          pEC50             4.54
25  O=C(c1cn2cc(Br)c(O)cc2n1)N1CC[C@]2(Cc3ccccc3CN2)[C@H](O)C1          pEC50             4.71
26  Cn1nccc1-c1cnc2nc(C(=O)N3CC[C@]4(Cc5ccccc5CN4)[C@H](O)C3)cn2c1          pEC50             7.11
27  O=C(c1cn2ccc(Cl)c(I)c2n1)N1CC[C@]2(Cc3ccccc3CN2)[C@H](O)C1          pEC50             5.59
28  O=C(c1cn2cc(Br)nc(OC3CCOC3)c2n1)N1CC[C@]2(Cc3ccccc3CN2)[C@H](O)C1 (single isomer, unassigned) [Example 99]          pEC50             6.83
29  O=C(c1cn2cc(C(F)(F)F)cc(CO)c2n1)N1CC[C@]2(Cc3ccccc3CN2)[C@H](O)C1          pEC50             6.19

----------
log10 of EC50 values, listed per item
- MEASURED_TARGET: Full-length (FL)-PRMT5-MEP50 enzyme complex (Homo sapiens, UniProt O14744)
- Construct: Full-length (FL)-PRMT5-MEP50 enzyme complex (recombinant proteins from baculovirus-transfected Sf21 cells: FL-PRMT5; MW=73837 kDa and FL-MEP50; MW=38614); made in house; host or cells: baculovirus-transfected Sf21 cells
- Sequence (O14744 whole entry): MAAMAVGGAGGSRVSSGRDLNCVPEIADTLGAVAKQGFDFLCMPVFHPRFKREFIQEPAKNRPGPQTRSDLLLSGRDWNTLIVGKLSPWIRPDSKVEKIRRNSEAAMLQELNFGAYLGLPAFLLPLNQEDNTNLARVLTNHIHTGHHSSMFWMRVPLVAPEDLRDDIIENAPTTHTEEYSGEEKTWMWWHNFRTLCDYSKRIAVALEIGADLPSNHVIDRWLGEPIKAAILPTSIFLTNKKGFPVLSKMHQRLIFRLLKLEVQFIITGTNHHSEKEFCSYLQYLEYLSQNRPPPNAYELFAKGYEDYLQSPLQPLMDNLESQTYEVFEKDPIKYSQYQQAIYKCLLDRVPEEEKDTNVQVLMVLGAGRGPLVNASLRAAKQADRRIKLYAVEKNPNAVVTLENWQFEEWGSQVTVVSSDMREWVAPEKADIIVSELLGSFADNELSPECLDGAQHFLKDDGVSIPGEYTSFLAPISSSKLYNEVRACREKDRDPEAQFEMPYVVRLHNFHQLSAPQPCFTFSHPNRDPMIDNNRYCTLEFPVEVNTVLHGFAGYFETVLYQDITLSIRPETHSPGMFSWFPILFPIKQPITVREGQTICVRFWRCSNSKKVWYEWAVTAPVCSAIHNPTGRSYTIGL
- Sequence (Q9BQA1 whole entry partner): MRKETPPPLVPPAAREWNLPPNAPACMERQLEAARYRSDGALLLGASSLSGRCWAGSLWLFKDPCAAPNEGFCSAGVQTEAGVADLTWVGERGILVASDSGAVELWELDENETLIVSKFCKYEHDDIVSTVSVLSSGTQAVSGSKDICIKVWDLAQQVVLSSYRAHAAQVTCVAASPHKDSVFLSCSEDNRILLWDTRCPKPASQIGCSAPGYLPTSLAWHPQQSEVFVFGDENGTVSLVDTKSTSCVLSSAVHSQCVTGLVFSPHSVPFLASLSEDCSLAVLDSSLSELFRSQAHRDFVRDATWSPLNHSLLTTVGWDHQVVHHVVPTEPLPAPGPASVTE
- TEST: PRMT5-MEP50 Enzyme Methylation Assay (Version A)
- Assay type: biochemical
- TEST_SETTINGS: second value of 7 parameter biphasic fit; read-out: Enzyme Methylation Assay Version A (EC50 2)
QUANTITY_KIND: log10 of EC50 (log10 of the value in nM)

> print(dat)
                                   molecule  endpoint.result
1  CC(C)(O)COc1nc(Br)cn2cc(C(=O)N3CC[C@]4(Cc5ccccc5CN4)[C@H](O)C3)nc12             2.18
2  COc1cc2nc(C(=O)N3CC[C@]4(Cc5ccccc5CN4)[C@H](O)C3)cn2cc1Br             2.47
3  COc1nc(Br)cn2cc(C(=O)N3CC[C@]4(Cc5ccccc5CN4)[C@H](O)C3)nc12             2.61
4  Cc1cn2cc(C(=O)N3CC[C@]4(Cc5ccccc5CN4)[C@H](O)C3)nc2c(O)n1             3.97
5  COc1nc(C)ccc1C(=O)N1CC[C@]2(Cc3ccccc3CN2)[C@H](O)C1             3.44
6  CN1CC(C2CC2)Cn2cc(C(=O)N3CC[C@]4(Cc5ccccc5CN4)[C@H](O)C3)nc21 (single isomer, unassigned) [Example 142]             3.27
7  COC(C)c1ccc2nc(C(=O)N3CC[C@]4(Cc5ccccc5CN4)[C@H](O)C3)cn2c1 (single isomer, unassigned) [Example 22]             2.64

----------
Listing of recorded pEC50 by entry.
- MEASURED_TARGET: Full-length (FL)-PRMT5-MEP50 enzyme complex (Homo sapiens)
- Construct: Full-length (FL)-PRMT5-MEP50 enzyme complex (recombinant proteins from baculovirus-transfected Sf21 cells: FL-PRMT5; MW=73837 kDa and FL-MEP50; MW=38614); made in house; host or cells: baculovirus-transfected Sf21 cells
- TEST: PRMT5-MEP50 Enzyme Methylation Assay (Version A)
- Format: biochemical
- TEST_SETTINGS: single EC50 = 4 parameter single site sigmoidal fit; EC50 1 = first value of 7 parameter biphasic fit; read-out: Enzyme Methylation Assay Version A (EC50 or EC50 1)
pEC50: −log10 of the molar value.
QUANTITY_KIND: pEC50

> print(dat)
                                    compound  endpoint.result
 1  CO[C@H](C)c1cc(CN2CCCC2)cn2cc(C(=O)N3CC[C@]4(Cc5ccccc5CN4)[C@H](O)C3)nc12             9.18
 2  Cc1ccn2cc(C(=O)N3CC[C@]4(Cc5ccccc5CN4)[C@H](O)C3)nc2n1             7.38
 3  COC(C)c1ccc2nc(C(=O)N3CC[C@]4(Cc5ccccc5CN4)[C@H](O)C3)cn2c1 (single isomer, unassigned) [Example 23]             8.74
 4  Cc1c(C(=O)N2CC[C@]3(Cc4ccccc4CN3)[C@H](O)C2)nn2cc(Br)cnc12             9.40
 5  O=C(c1cn(C(F)F)cn1)N1CC[C@]2(Cc3ccccc3CN2)[C@H](O)C1             5.45
 6  CO[C@H](C)c1cc(-c2cccnc2C)cn2cc(C(=O)N3CC[C@]4(Cc5ccccc5CN4)[C@H](O)C3)nc12             9.21
 7  O=C(c1cn2cc(C3CC3(F)F)cnc2n1)N1CC[C@]2(Cc3ccccc3CN2)[C@H](O)C1 (single isomer, unassigned) [Example 75]             8.78
 8  Cc1cc2nnc(C(=O)N3CC[C@]4(Cc5ccccc5CN4)[C@H](O)C3)c(C)n2n1             7.79
 9  Cc1cnc2nc(C(=O)N3CC[C@]4(Cc5ccccc5CN4)[C@H](O)C3)cn2c1C             7.21
10  COC(C)c1cc(C2CC2)cn2cc(C(=O)N3CC[C@]4(Cc5ccccc5CN4)[C@H](O)C3)nc12 (some centres unmarked)             9.61
11  O=C(c1cn2c(n1)C(C1CCOC1)CC(C(F)(F)F)C2)N1CC[C@]2(Cc3ccccc3CN2)[C@H](O)C1 (single isomer, unassigned) [Example 162]             6.59
12  COC(C)c1cc(C)c2nc(C(=O)N3CC[C@]4(Cc5ccccc5CN4)[C@H](O)C3)cn2c1 (single isomer, unassigned) [Example 123]             9.42
13  COC(C)(C)c1ccc2nc(C(=O)N3CC[C@]4(Cc5ccccc5CN4)[C@H](O)C3)cn2c1 (stereo in doubt)             9.30
14  COCC1CC(C)Cn2cc(C(=O)N3CC[C@]4(Cc5ccccc5CN4)[C@H](O)C3)nc21 (single isomer, unassigned) [Example 157]             8.05
